molecular target: human EGFR (d746-750/T790M/C797S) (Homo sapiens, UniProt P00533, C797S/DEL746-750/T790M); construct: human EGFR (d746-750/T790M/C797S) (668-end, SignalChem); assay: EGFR C797S enzyme inhibition activity (ADP-Glo kinase assay); conditions: purified enzyme 3 ng, ATP 5 μM, 25° C., 1 hour, luminescence; read-out: EGFR DTC Enzyme IC50
Sequence (P00533 with tags, fused parts or gaps DEL746-750/T790M/C797S): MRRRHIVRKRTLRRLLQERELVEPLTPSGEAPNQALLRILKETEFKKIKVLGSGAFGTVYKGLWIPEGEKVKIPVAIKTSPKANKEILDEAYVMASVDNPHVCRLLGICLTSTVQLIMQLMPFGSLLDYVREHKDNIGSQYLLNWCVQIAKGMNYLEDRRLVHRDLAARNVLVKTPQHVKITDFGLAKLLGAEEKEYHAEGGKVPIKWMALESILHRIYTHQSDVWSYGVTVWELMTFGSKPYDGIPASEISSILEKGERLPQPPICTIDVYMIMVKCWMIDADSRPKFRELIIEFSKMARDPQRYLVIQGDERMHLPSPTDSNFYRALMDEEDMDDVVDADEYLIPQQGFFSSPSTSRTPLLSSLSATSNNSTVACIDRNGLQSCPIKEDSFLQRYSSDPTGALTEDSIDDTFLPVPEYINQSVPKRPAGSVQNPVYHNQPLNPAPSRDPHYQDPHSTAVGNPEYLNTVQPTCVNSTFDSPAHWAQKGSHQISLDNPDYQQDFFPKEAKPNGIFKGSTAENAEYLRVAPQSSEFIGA
endpoint.name: IC50

Reference set, count: 2
{"compound": "CC(C)Nc1cc(Nc2ccnc(-c3cnn(S(=O)(=O)C4CC4)c3)n2)ncc1C(=O)Nc1cc(N2CCN(C)CC2)cc(C(C)(C)C#N)c1", "reported.result": "50 to 500 nM"}
{"compound": "CO[C@H]1CCN(c2nccc(Nc3cc(NC(C)C)c(C(=O)NCCC(F)(F)F)cn3)n2)C[C@H]1F (relative stereo)", "reported.result": "< 50 nM"}

# evaluate next
Looking for the measured IC50 of CC(C)Nc1cc(Nc2ccnc(-c3cnn(S(=O)(=O)C4CC4)c3)n2)ncc1C(=O)NC(CCN(C)C)c1ccccc1 (stereo not drawn) , can you help?
< 50 nM

---

Entries and their measured IC50 follow.
target: human EGFR (d746-750/T790M/C797S) (Homo sapiens, UniProt P00533, C797S/DEL746-750/T790M); construct: human EGFR (d746-750/T790M/C797S) (668-end, SignalChem); assay: EGFR C797S enzyme inhibition activity (ADP-Glo kinase assay); conditions: purified enzyme 3 ng, ATP 5 μM, 25° C., 1 hour, luminescence; read-out: EGFR DTC Enzyme IC50

Reference set, count: 3
{"compound": "CC(C)Nc1cc(Nc2ccnc(N3CCN(S(C)(=O)=O)CC3)n2)ncc1C(=O)N1CC(CS(C)(=O)=O)C1", "IC50": "0.05 to 0.5 µM"}
{"compound": "CO[C@H]1CCN(c2nccc(Nc3cc(NC4CCOC4)c(C(=O)N4CC(CS(C)(=O)=O)C4)cn3)n2)C[C@H]1F (relative stereo)", "IC50": "< 0.05 µM"}
{"compound": "CC(C)Nc1cc(Nc2ccnc(-c3cn[nH]c3)n2)ncc1C(=O)NC1CCNC1 (stereo not shown)", "IC50": "< 0.05 µM"}

Looking for the measured IC50 of `CC(C)Nc1cc(Nc2ccnc(-c3cnn(S(=O)(=O)C4CC4)c3)n2)ncc1C(=O)Nc1cccc(N2CCN(C)CC2)c1` , can you help?
< 0.05 µM

Looking for the measured IC50 of `CC(C)Nc1cc(Nc2ccnc(-c3cnn(CC4CC4)c3)n2)ncc1C(=O)N1CC(CS(C)(=O)=O)C1` , can you help?
< 0.05 µM

Looking for the measured IC50 of `CC(C)Nc1cc(Nc2ccnc(-c3cnn(S(=O)(=O)C4CC4)c3)n2)ncc1C(=O)NCc1ccc(F)cc1` , can you help?
0.05 to 0.5 µM

Looking for the measured IC50 of CC(C)Nc1cc(Nc2ccnc(-c3cnn(S(=O)(=O)C4CC4)c3)n2)ncc1C(=O)NCC1CCCO1 (stereo not shown) , can you help?
< 0.05 µM

---

Entries and their measured IC50 follow.
Target: human EGFR (d746-750/T790M/C797S) (Homo sapiens, UniProt P00533, C797S/DEL746-750/T790M)
Construct: human EGFR (d746-750/T790M/C797S) (668-end, SignalChem)
Test: EGFR C797S enzyme inhibition activity (ADP-Glo kinase assay)
Settings: purified enzyme 3 ng, ATP 5 μM, 25° C., 1 hour, luminescence; read-out: EGFR DTC Enzyme IC50
Experimental: <Experimental Example 1> Evaluation of EGFR C797S Enzyme Inhibition Activity The compounds according to the present invention were reacted together with purified human EGFR (d746-750/T790M/C797S) (668-end, SignalChem) enzyme and a specific substrate and evaluated for enzyme inhibitory activity as described below. The reaction buffer consisted of 40 mM Tris-HCl pH 7.4, 20 mM MgCl2, 0.5 mg/ml BSA, and 50 μM DTT, and all reactions of the test substances were performed in reaction buffers. […]

Looking for the measured IC50 of `C[C@H]1CCOc2c(cnn2C)-c2nccc(n2)Nc2cc(c(C(=O)NCCS(C)(=O)=O)cn2)N1` , can you help?
< 50 nM

Looking for the measured IC50 of `CS(=O)(=O)CC1CN(C(=O)c2cnc(Nc3ccnc(-c4cnn(S(=O)(=O)C5CC5)c4)n3)cc2NC2CCCC2)C1` , can you help?
< 50 nM

Looking for the measured IC50 of `CC(C)Nc1cc(Nc2ccnc(-c3cnn(S(=O)(=O)C4CC4)c3)n2)ncc1C(=O)NCCCN(C)C(=O)OC(C)(C)C` , can you help?
50 to 500 nM

Looking for the measured IC50 of `CC(C)Nc1cc(Nc2ccnc(-c3cnn(S(=O)(=O)C4CC4)c3)n2)ncc1C(=O)NCCCN(C)C` , can you help?
< 50 nM
